Target under test: HLA-A*03:01
Test description: IEDB peptide-MHC binding, purified MHC/competitive/fluorescence; filed as Kd, often an IC50 or EC50 that approximates it; bounds were set here for any values at or beyond the usual limits of such assays
Run conditions: source organism: Bacillus anthracis str. A0488
Measurement kind: pKd
Give only the number. pKd is defined as minus log10 of concentration in molar units.

QUERY: Query: pKd; subject: `IILAHFLYK`
RESULT: 7.92

* * *

Target under test: HLA-A*11:01
Test description: IEDB peptide-MHC binding, purified MHC/competitive/fluorescence; filed as Kd, often an IC50 or EC50 that approximates it; bounds were set here for any values at or beyond the usual limits of such assays
Run conditions: source organism: Entamoeba histolytica HM-1:IMSS
Measurement kind: Kd

QUERY: Consider the sequence shown here: `EVIRATYPS` What is its recorded Kd?
RESULT: ≥ 5 µM

* * *

Target under test: HLA-A*03:01
Test description: IEDB peptide-MHC binding, purified MHC/competitive/radioactivity; filed as Kd, often an IC50 or EC50 that approximates it; bounds were set here for any values at or beyond the usual limits of such assays
Run conditions: source organism: Dengue virus 4 Dominica/814669/1981
In this section we review reported pKd values for a set of sequences.
Please express pKd as -log10 of the molar concentration.

AIKILIGFRK	6.67

Here's the next entry for you.
QUERY: Entry `ALTPPVSDLK` : reported pKd = ?
RESULT: 7.06

* * *

Target under test: HLA-A*02:19
Test description: IEDB peptide-MHC binding, purified MHC/direct/fluorescence; filed as Kd, often an IC50 or EC50 that approximates it; bounds were set here for any values at or beyond the usual limits of such assays
Run conditions: source organism: Entamoeba histolytica HM-1:IMSS
pKd: −log10 of the molar value.
Measurement kind: pKd

QUERY: What pKd value was documented for this sequence, `RQRHYFDSA` ?
RESULT: ≤ 4.70

* * *

Target under test: HLA-A*03:01
Test description: IEDB peptide-MHC binding, purified MHC/competitive/fluorescence; bounds were set here for any values at or beyond the usual limits of such assays
Run conditions: source organism: Zaire ebolavirus
Measurement kind: IC50

MVIFRLMRT	≥ 96.6 µM

QUERY: What value of measured IC50 is listed for `VTLDGQQFY` ?
RESULT: ≥ 105 µM

QUERY: Query `LLPAVSSGK` next
RESULT: 1.9 µM

QUERY: Can you handle `WPVMNHKNK` next?
RESULT: ≥ 180 µM

QUERY: Can you handle `VTGILQLPR` next?
RESULT: 6.83 µM

QUERY: Follow-up item: `FTVVSNGAK`
RESULT: 17.7 µM

QUERY: What do you get for `VIFRLMRTN` ?
RESULT: 7.47 µM

* * *

Target under test: HLA-B*45:06
Test description: IEDB peptide-MHC binding, purified MHC/competitive/fluorescence; filed as Kd, often an IC50 or EC50 that approximates it; bounds were set here for any values at or beyond the usual limits of such assays
Run conditions: source organism: Influenza A virus (A/Fort Monmouth/1/1947-mouse adapted(H1N1))
pKd: −log10 of the molar value.
Measurement kind: pKd

QUERY: # query: pKd of entry `GTFEFTSFF`
RESULT: ≤ 5.30

* * *

Target under test: HLA-B*44:02
Test description: IEDB peptide-MHC binding, purified MHC/competitive/radioactivity; filed as Kd, often an IC50 or EC50 that approximates it; bounds were set here for any values at or beyond the usual limits of such assays
Run conditions: source organism: Mammarenavirus brazilense
Measurement kind: pKd
Units for pKd: none; it is -log10 of a concentration expressed in mol/L.

QUERY: Any idea what its pKd is? The sequence is `AENGELTEI`
RESULT: 6.74
